Molecular target: T1, FZD5 CRD (Homo sapiens, UniProt Q13467)
T1 construct: K29-T156; GPI anchor signal (C); expressed in transfected cells; host or cells: CHO cells, lentiviral pLenti-puro
T1 sequence (Q13467 29-156): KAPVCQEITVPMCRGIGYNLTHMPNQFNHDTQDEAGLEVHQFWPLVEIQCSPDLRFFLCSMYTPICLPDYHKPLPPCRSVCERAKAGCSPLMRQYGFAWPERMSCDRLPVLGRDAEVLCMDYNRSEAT
Experiment: Immunofluorescence of anti-FZD5 Fab binding to CHO cells overexpressing Frizzled CRD
Parameters: key: −: no binding; +: very weak binder; ++: weak binder; +++: good binder; ++++: very good binder
Readout: Immunofluorescence binding, Frizzled CRD overexpressed on CHO cells: FZD5

Ask | // query Immunofluorescence binding, Frizzled CRD overexpressed on CHO cells: FZD5 value for entry Fab-2901: anti-FZD5 Fab with antibody variable region Fv-2901; CDR SEQ ID NOs: 35, 36, 40, 79, 116, 154 (antibody, V domains shown) VH: EVQLVESGGGLVQPGGSLRLSCAASGFNISYSYMHWVRQAPGKGLEWVASIYSYSSYTYYADSVKGRFTISADTSKNTAYLQMNSLRAEDTAVYYCARSWYYWSPSSGMDYWGQGTLVTVSS VL: DIQMTQSPSSLSASVGDRVTITCRASQSVSSAVAWYQQKPGKAPKLLIYSASSLYSGVPSRFSGSRSGTDFTLTISSLQPEDFATYYCQQGGFLITFGQGTKVEIK
Reply | ++++
